Exercise: state measured MIC for each of the compounds provided.
# System: E. coli RGN238 (OXA-1)
# experiment-description: MIC of compounds alone, broth microdilution
# Format: cell-based
# settings: Escherichia coli; strain RGN238 (E. coli); read-out: MIC compounds of the invention alone
# Experimental: Method 2: MIC of Compounds and Synergy with Ceftazidime Against Bacterial Isolates (Table 2 and 3) Compounds of the present invention were assessed against genotyped bacterial strains alone or in combination with the β-lactam ceftazidime (CAZ). In the assays, MICs of said compounds, or of ceftazidime at fixed concentrations of said compounds were determined by the broth microdilution method according to the Clinical Laboratory Standards Institute (CLSI-M7-A7). […]

compound="O=C1N2CC=C(c3cnccn3)C(C2)N1OS(=O)(=O)[O-].[Na+] (stereo not shown)" target_entity="E. coli RGN238 (OXA-1)" assay_value="> 32 µg/mL"
compound="O=C1N2CC=C(c3cscn3)C(C2)N1OS(=O)(=O)[O-].[Na+] (stereo not shown)" target_entity="E. coli RGN238 (OXA-1)" assay_value="> 32 µg/mL"
compound="O=C1N2CC=C(c3ncco3)C(C2)N1OS(=O)(=O)[O-].[Na+] (stereo not shown)" target_entity="E. coli RGN238 (OXA-1)" assay_value="32 µg/mL"
compound="Cn1cc(C2=CCN3CC2N(OS(=O)(=O)[O-])C3=O)cnc1=O.[Na+] (stereo not shown)" target_entity="E. coli RGN238 (OXA-1)" assay_value="16 µg/mL"

I'm hoping you can list MIC for every compound here, please.
1. O=C1N2CC(c3nc4ccccc4s3)=CC(C2)N1OS(=O)(=O)[O-].[Na+] (stereo not shown)
2. O=C1N2CC=C(c3cccnc3)C(C2)N1OS(=O)(=O)[O-].[Na+] (stereo not shown)
3. Cn1nccc1C1=CCN2CC1N(OS(=O)(=O)[O-])C2=O.[Na+] (stereo not shown)
4. Cn1nc(C2=CCN3CC2N(OS(=O)(=O)[O-])C3=O)ccc1=O.[Na+] (stereo not shown)
5. O=C1N2CC=C(c3cncnc3)C(C2)N1OS(=O)(=O)[O-].[Na+] (stereo not shown)
6. Cn1cnc(C2=CCN3CC2N(OS(=O)(=O)[O-])C3=O)cc1=O.[Na+] (stereo not shown)
7. O=C1N2CC=C(c3cn[nH]c3)C(C2)N1OS(=O)(=O)[O-].[Na+] (stereo not shown)
8. O=C1N2CC=C(c3cnsc3)C(C2)N1OS(=O)(=O)[O-].[Na+] (stereo not shown)

> 32 µg/mL
> 32 µg/mL
> 32 µg/mL
32 µg/mL
> 32 µg/mL
> 32 µg/mL
> 32 µg/mL
> 32 µg/mL

Quick one: MIC of COc1ncc(C2=CCN3CC2N(OS(=O)(=O)[O-])C3=O)cn1.[Na+] (stereo not shown) ?
> 32 µg/mL

###

# target-entity: OXA-48 (Klebsiella pneumoniae)
# Construct: made in house; host or cells: E. coli
# Sequence (Q6XEC0 23-265 limits assumed): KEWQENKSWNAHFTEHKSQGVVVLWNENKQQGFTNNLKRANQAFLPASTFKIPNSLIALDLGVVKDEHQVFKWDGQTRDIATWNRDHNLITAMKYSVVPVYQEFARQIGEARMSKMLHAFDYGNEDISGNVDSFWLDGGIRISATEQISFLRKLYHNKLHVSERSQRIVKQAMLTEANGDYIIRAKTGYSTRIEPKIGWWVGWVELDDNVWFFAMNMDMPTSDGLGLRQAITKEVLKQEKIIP
# experiment-description: β-lactamase inhibitory activity, determination of IC50 (nitrocefin hydrolysis)
# Assay type: biochemical
# settings: class (D); nitrocefin 200 μM, 30 min pre-incubation; read-out: IC50 β-lactamase OXA-48
Exercise: state measured pIC50 for each of the molecules provided.
Answers are plain numbers, as −log10 of the molar value.

molecule="NCc1ncc(C2=CCN3CC2N(OS(=O)(=O)O)C3=O)s1 (stereo not shown)" endpoint_name=pIC50 assay_value=8.05
molecule="O=C1N2CC(c3cnoc3)=CC(C2)N1OS(=O)(=O)[O-].[Na+] (stereo not shown) [Example 26, sulfate]" endpoint_name=pIC50 assay_value=8.18
molecule="COc1ncc(C2=CCN3CC2N(OS(=O)(=O)[O-])C3=O)cn1.[Na+] (stereo not shown) [Example 24, sulfate]" endpoint_name=pIC50 assay_value=8.44

We now examine a further molecule.
Param readout = pIC50; param system = OXA-48 (Klebsiella pneumoniae); param query = Cn1cnc(C2=CCN3CC2N(OS(=O)(=O)[O-])C3=O)cc1=O.[Na+] (stereo not shown) [Example 20, sulfate] ; response: value
8.66

###

# target-entity: TEM-1 (Escherichia coli)
# Construct: made in house; host or cells: E. coli
# Sequence (P62593 24-286 limits assumed): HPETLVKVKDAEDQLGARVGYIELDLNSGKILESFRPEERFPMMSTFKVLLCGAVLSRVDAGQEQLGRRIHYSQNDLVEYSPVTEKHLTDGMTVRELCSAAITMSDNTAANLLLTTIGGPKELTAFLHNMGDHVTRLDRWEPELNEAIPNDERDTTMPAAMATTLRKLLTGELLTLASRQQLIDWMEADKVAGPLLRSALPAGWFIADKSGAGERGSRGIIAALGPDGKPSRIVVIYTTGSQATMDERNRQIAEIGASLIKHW
# experiment-description: β-lactamase inhibitory activity, determination of IC50 (nitrocefin hydrolysis)
# Type: biochemical
Could you mark each record Y if its IC50 falls strictly under 3 nM, and N if it equals or exceeds it?

Consider the following illustrative entries.
compound="Cn1ncc(C2=CCN3CC2N(OS(=O)(=O)[O-])C3=O)cc1=O.[Na+] (centres unmarked) [Example 19, sulfate]" label=N
compound="Cn1cc(C2=CCN3CC2N(OS(=O)(=O)[O-])C3=O)ncc1=O.[Na+] (centres unmarked) [Example 14, sulfate]" label=Y
compound="O=C1N2CC=C(c3ccns3)C(C2)N1OS(=O)(=O)[O-].[Na+] (centres unmarked) [Example 30, sulfate]" label=N
compound="O=C1N2CC=C(c3cnccn3)C(C2)N1OS(=O)(=O)[O-].[Na+] (centres unmarked)" label=N
compound="O=C1N2CC=C(c3ncco3)C(C2)N1OS(=O)(=O)[O-].[Na+] (centres unmarked)" label=Y

Item O=C1N2CC(c3nc4cccnc4s3)=CC(C2)N1OS(=O)(=O)[O-].[Na+] (centres unmarked) [Example 40, sulfate] : IC50 beneath 3 nM, strictly?
Y

Item NCc1cnc(C2=CC3CN(C2)C(=O)N3OS(=O)(=O)O)s1 (centres unmarked) : IC50 beneath 3 nM, strictly?
Y

Item O=C1N2CC=C(c3cscn3)C(C2)N1OS(=O)(=O)[O-].[Na+] (centres unmarked) [Example 31, sulfate] : IC50 beneath 3 nM, strictly?
N

###

Exercise: state measured MIC for each of the compounds provided.
# System: E. cloacae UFR70 (TEM-1, CTX-M-15, CMY-2, OXA-1, Porin loss)
# experiment-description: MIC of compounds alone, broth microdilution
# Type: cell-based
# settings: Enterobacter cloacae, read-out: MIC compounds of the invention alone
One number for each entry, in µg/mL.

Examples with answers:
compound="O=C1N2CC=C(c3cnco3)C(C2)N1OS(=O)(=O)[O-].[Na+] (centres unmarked) [Example 3]" target_entity="E. cloacae UFR70 (TEM-1, CTX-M-15, CMY-2, OXA-1, Porin loss)" assay_value=8
compound="O=C1N2CC(c3ccncc3)=CC(C2)N1OS(=O)(=O)[O-].[Na+] (centres unmarked) [Example 33]" target_entity="E. cloacae UFR70 (TEM-1, CTX-M-15, CMY-2, OXA-1, Porin loss)" assay_value=4
compound="O=C1N2CC=C(c3cnoc3)C(C2)N1OC(F)(F)C(=O)[O-].[Li+] (centres unmarked) [Example 6]" target_entity="E. cloacae UFR70 (TEM-1, CTX-M-15, CMY-2, OXA-1, Porin loss)" assay_value=16

I'm hoping you can list MIC for every compound here, please.
1. O=C1N2CC(c3ncco3)=CC(C2)N1OS(=O)(=O)[O-].[Na+] (centres unmarked) [Example 25]
2. O=C1N2CC(c3ncco3)=C[C@H](C2)N1OC(F)(F)C(=O)O (racemic) [Example 37]
3. O=C1N2CC=C(c3cnoc3)C(C2)N1OS(=O)(=O)[O-].[Na+] (centres unmarked) [Example 5]
4. Cn1ncc(C2=CCN3CC2N(OS(=O)(=O)[O-])C3=O)cc1=O.[Na+] (centres unmarked) [Example 19]
5. Cn1cc(C2=CCN3CC2N(OS(=O)(=O)[O-])C3=O)cnc1=O.[Na+] (centres unmarked) [Example 15]

1. 2
2. 2
3. 16
4. 16
5. 8

###

# target-entity: SHV-1 (Klebsiella pneumoniae)
# Construct: made in house; host or cells: E. coli
# Sequence (P0AD64 22-286): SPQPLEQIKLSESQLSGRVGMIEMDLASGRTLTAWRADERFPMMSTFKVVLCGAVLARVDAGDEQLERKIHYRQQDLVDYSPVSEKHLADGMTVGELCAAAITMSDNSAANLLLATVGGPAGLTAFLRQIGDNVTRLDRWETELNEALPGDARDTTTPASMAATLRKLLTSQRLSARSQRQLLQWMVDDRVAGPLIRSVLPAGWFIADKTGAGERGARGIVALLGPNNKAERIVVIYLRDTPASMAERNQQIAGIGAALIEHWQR
# experiment-description: β-lactamase inhibitory activity, determination of IC50 (nitrocefin hydrolysis)
# Type: biochemical
Exercise: state measured IC50 for each of the compounds provided.
Give bare numbers, in nM.

Examples with answers:
compound="COc1ncc(C2=CCN3CC2N(OS(=O)(=O)[O-])C3=O)cn1.[Na+] (stereo not shown) [Example 24, sulfate]" endpoint_name=IC50 units_of_measure=nM assay_value=20
compound="Cn1cc(C2=CCN3CC2N(OS(=O)(=O)[O-])C3=O)ncc1=O.[Na+] (stereo not shown) [Example 14, sulfate]" endpoint_name=IC50 units_of_measure=nM assay_value=2.9
compound="O=C1N2CC(c3cnco3)=CC(C2)N1OS(=O)(=O)[O-].[Na+] (stereo not shown)" endpoint_name=IC50 units_of_measure=nM assay_value=8.4
compound="O=C1N2CC=C(c3ccns3)C(C2)N1OS(=O)(=O)[O-].[Na+] (stereo not shown) [Example 30, sulfate]" endpoint_name=IC50 units_of_measure=nM assay_value=15
compound="Cn1nc(C2=CCN3CC2N(OS(=O)(=O)[O-])C3=O)ccc1=O.[Na+] (stereo not shown) [Example 17, sulfate]" endpoint_name=IC50 units_of_measure=nM assay_value=2.8
compound="Cn1cc(C2=CC3CN(C2)C(=O)N3OS(=O)(=O)[O-])ccc1=O.[Na+] (stereo not shown) [Example 28, sulfate]" endpoint_name=IC50 units_of_measure=nM assay_value=3.8
compound="Cn1ncc(C2=CCN3CC2N(OS(=O)(=O)[O-])C3=O)cc1=O.[Na+] (stereo not shown) [Example 19, sulfate]" endpoint_name=IC50 units_of_measure=nM assay_value=8.9
compound="O=C1N2CC(c3ccccn3)=CC(C2)N1OS(=O)(=O)[O-].[Na+] (stereo not shown)" endpoint_name=IC50 units_of_measure=nM assay_value=2.9

I'm hoping you can list IC50 for every compound here, please.
1. O=C1N2CC=C(c3ccncc3)C(C2)N1OS(=O)(=O)[O-].[Na+] (stereo not shown)
2. O=C1N2CC(c3nc4ccccc4s3)=CC(C2)N1OS(=O)(=O)[O-].[Na+] (stereo not shown) [Example 27, sulfate]
3. O=C1N2CC=C(c3ccccn3)C(C2)N1OS(=O)(=O)[O-].[Na+] (stereo not shown)
4. O=C1N2CC=C(c3cnco3)C(C2)N1OS(=O)(=O)[O-].[Na+] (stereo not shown)

30
2.1
56
6.9

I'm hoping you can list IC50 for every compound here, please.
1. Cn1ccc(C2=CCN3CC2N(OS(=O)(=O)[O-])C3=O)cc1=O.[Na+] (stereo not shown) [Example 13, sulfate]
2. O=C1N2CC=C(c3cncnc3)C(C2)N1OS(=O)(=O)[O-].[Na+] (stereo not shown) [Example 10, sulfate]

8.8
21

I'm hoping you can list IC50 for every compound here, please.
1. O=C1N2CC(c3ncco3)=CC(C2)N1OS(=O)(=O)[O-].[Na+] (stereo not shown)
2. Cn1cccc(C2=CCN3CC2N(OS(=O)(=O)[O-])C3=O)c1=O.[Na+] (stereo not shown) [Example 16, sulfate]
3. O=C1N2CC(c3cnoc3)=CC(C2)N1OS(=O)(=O)[O-].[Na+] (stereo not shown) [Example 26, sulfate]

1: 15; 2: 120; 3: 13

I'm hoping you can list IC50 for every compound here, please.
1. Cn1c(C2=CCN3CC2N(OS(=O)(=O)[O-])C3=O)cccc1=O.[Na+] (stereo not shown) [Example 18, sulfate]
2. O=C1N2CC(c3ncon3)=CC(C2)N1OS(=O)(=O)[O-].[Na+] (stereo not shown) [Example 36, sulfate]
3. O=C1N2CC(c3ccncc3)=CC(C2)N1OS(=O)(=O)[O-].[Na+] (stereo not shown)
4. COc1ncc(C2=CC3CN(C2)C(=O)N3OS(=O)(=O)[O-])s1.[Na+] (stereo not shown) [Example 39, sulfate]
5. O=C1N2CC=C(c3cnoc3)C(C2)N1OC(F)(F)C(=O)[O-].[Li+] (stereo not shown)
6. Cn1cc(C2=CCN3CC2N(OS(=O)(=O)[O-])C3=O)cnc1=O.[Na+] (stereo not shown) [Example 15, sulfate]

[11, 16, 2.3, 3.2, 18, 12]
